Test system: Candida albicans
Assay: Antifungal activity against wild type Candida albicans MY1055 assessed as growth inhibition after 24 hrs by NCCLS broth microdilution method
Type: functional
Settings: MY1055, 24 h
Numbered stars: 1 amine (or outer) side, 2 acyl side, 3 side chain; on linkers, the order of the positions; unused ones are H or OH. Bridge positions count the residues as written; N and C are the ends. Square brackets hold non-standard residues; d marks the D form. Peptide text beside a SMILES is read from it. * marks the point of attachment. Orn(4R-OH,5R-OH) = O=C([C@H](C[C@@H](O)[C@@H](O)N[*:3])N[*:1])[*:2]; Tetradecanoyl(10R,12S-Me2) = CC[C@H](C)C[C@H](C)CCCCCCCCC(=O)*; hTyr(3S-OH,4S-OH) = N[C@H](C(=O)O)[C@H](O)[C@@H](O)c1ccc(O)cc1; Pro(3S-OH,4S-Me) = C[C@H]1CN[C@H](C(=O)O)[C@H]1O; X1 = CCCCCOc1ccc(-c2cc(-c3ccc(C(=O)*)cc3)no2)cc1; Gln(3R-OH) = NC(=O)C[C@@H](O)[C@H](N)C(=O)O; Pro(3S-OH) = O=C(O)[C@H]1NCC[C@@H]1O; Hyp = O=C(O)[C@@H]1C[C@@H](O)CN1
Measured parameter: MIC80

{"columns": ["Compound", "Test result"],
 "data": [
  ["CC[C@H](C)C[C@H](C)CCCCCCCCC(=O)N[C@H]1C[C@@H](O)[C@@H](NCCN)NC(=O)[C@@H]2[C@@H](O)CCN2C(=O)[C@H]([C@H](O)CCN)NC(=O)[C@H]([C@H](O)[C@@H](O)c2ccc(O)cc2)NC(=O)[C@@H]2C[C@@H](O)CN2C(=O)[C@H]([C@@H](C)O)NC1=O [CASPOFUNGIN]", "< 0.03 µg/mL"],
  ["CC[C@H](C)C[C@H](C)CCCCCCCCC(=O)N[C@H]1C[C@@H](O)[C@@H](O)NC(=O)[C@@H]2[C@@H](O)[C@@H](C)CN2C(=O)[C@H]([C@H](O)CC(N)=O)NC(=O)[C@H]([C@H](O)[C@@H](O)c2ccc(O)cc2)NC(=O)[C@@H]2C[C@@H](O)CN2C(=O)[C@H]([C@@H](C)O)NC1=O ({Tetradecanoyl(10R,12S-Me2)}-[Orn(4R-OH,5R-OH)]T[Hyp][hTyr(3S-OH,4S-OH)][Gln(3R-OH)][Pro(3S-OH,4S-Me)]; lactam 1-C)", "0.125 µg/mL"],
  ["CC[C@H](C)C[C@H](C)CCCCCCCCC(=O)N[C@H]1C[C@@H](O)[C@@H](O)NC(=O)[C@@H]2[C@@H](O)CCN2C(=O)[C@H]([C@H](O)CC(N)=O)NC(=O)[C@H]([C@H](O)[C@@H](O)c2ccc(O)cc2)NC(=O)[C@@H]2C[C@@H](O)CN2C(=O)[C@H]([C@@H](C)O)NC1=O ({Tetradecanoyl(10R,12S-Me2)}-[Orn(4R-OH,5R-OH)]T[Hyp][hTyr(3S-OH,4S-OH)][Gln(3R-OH)][Pro(3S-OH)]; lactam 1-C)", "0.125 µg/mL"],
  ["CCCCCOc1ccc(-c2cc(-c3ccc(C(=O)N[C@H]4C[C@@H](O)[C@@H](O)NC(=O)[C@@H]5[C@@H](O)CCN5C(=O)[C@H]([C@H](O)CC(N)=O)NC(=O)[C@H]([C@H](O)[C@@H](O)c5ccc(O)cc5)NC(=O)[C@@H]5C[C@@H](O)CN5C(=O)[C@H]([C@@H](C)O)NC4=O)cc3)no2)cc1 (X1-[Orn(4R-OH,5R-OH)]T[Hyp][hTyr(3S-OH,4S-OH)][Gln(3R-OH)][Pro(3S-OH)]; lactam 1-C)", "< 0.03 µg/mL"],
  ["CCCCCOc1ccc(-c2cc(-c3ccc(C(=O)N[C@H]4C[C@@H](O)[C@@H](O)NC(=O)[C@@H]5[C@@H](O)[C@@H](C)CN5C(=O)[C@H]([C@@H](C)O)NC(=O)[C@H]([C@H](O)[C@@H](O)c5ccc(O)cc5)NC(=O)[C@@H]5C[C@@H](O)CN5C(=O)[C@H]([C@@H](C)O)NC4=O)cc3)no2)cc1 (X1-[Orn(4R-OH,5R-OH)]T[Hyp][hTyr(3S-OH,4S-OH)]T[Pro(3S-OH,4S-Me)]; lactam 1-C)", "0.06 µg/mL"]
]}

Task item: Query (compound): CCCCCOc1ccc(-c2cc(-c3ccc(C(=O)N[C@H]4C[C@@H](O)[C@@H](O)NC(=O)[C@@H]5[C@@H](O)[C@@H](C)CN5C(=O)[C@H]([C@H](O)CC(N)=O)NC(=O)[C@H]([C@H](O)[C@@H](O)c5ccc(O)cc5)NC(=O)[C@@H]5C[C@@H](O)CN5C(=O)[C@H]([C@@H](C)O)NC4=O)cc3)no2)cc1 (X1-[Orn(4R-OH,5R-OH)]T[Hyp][hTyr(3S-OH,4S-OH)][Gln(3R-OH)][Pro(3S-OH,4S-Me)]; lactam 1-C) ; field requested: MIC80
Reply: < 0.03 µg/mL
